Numbers sourced from ChEMBL document CHEMBL2146376.

System: Staphylococcus aureus
RUN DESCRIPTION: Antibacterial activity against PVL-positive and non-typable methicillin-resistant Staphylococcus aureus 1110301981H-T034 after 24 hrs by broth dilution method
Format: functional
Square brackets hold non-standard residues; d marks the D form. Peptide text beside a SMILES is read from it. Gly(1-adamantyl) = N[C@H](C(=O)O)C12CC3CC(CC(C3)C1)C2; Orn = NCCC[C@H](N)C(=O)O
We begin with a simple list: items and their reported MIC.

- COMPOUND: "NCCC[C@@H]1NC(=O)[C@H](C23CC4CC(CC(C4)C2)C3)NC(=O)[C@H](CCCN)NC(=O)[C@@H]2CCCN2C(=O)[C@@H](Cc2ccccc2)NC(=O)[C@H](CCCN)NC(=O)[C@H](C23CC4CC(CC(C4)C2)C3)NC(=O)[C@H](CCCN)NC(=O)[C@@H]2CCCN2C(=O)[C@@H](Cc2ccccc2)NC1=O (cyclo([Orn][dF]P[Orn][Gly(1-adamantyl)][Orn][dF]P[Orn][Gly(1-adamantyl)]))"
  MIC: "8 µg/mL"
- COMPOUND: "CC(C)(C)C[C@@H]1NC(=O)[C@H](CCCN)NC(=O)[C@@H]2CCCN2C(=O)[C@@H](Cc2ccccc2)NC(=O)[C@H](CCCN)NC(=O)[C@H](CC(C)(C)C)NC(=O)[C@H](CCCN)NC(=O)[C@@H]2CCCN2C(=O)[C@@H](Cc2ccccc2)NC(=O)[C@H](CCCN)NC1=O"
  MIC: "> 64 µg/mL"
